# System: Renilla luciferase RNA
# METHOD: Barcoded aptazyme variant library screen: un-cleaved Renilla luciferase RNA by barcode read counts, HEK293-T cells
# Format: cell-based
# TEST CONDITIONS: un-cleaved Renilla luciferase RNA, HEK293-T cells cultured with 1 mM theophylline (ON) over without theophylline (OFF); barcode read counts, triplicate
QUANTITY MEASURED: Fold change in RNA expression between the ON state and the OFF state (fold)
The answer is to be given in fold; state only the numeric part.

Problem: Requested read-out: Fold change in RNA expression between the ON state and the OFF state. Entry: RA217 (nucleic acid, expressed or natural sequence) DNA: GCGCGTCCTGGATTCCGAGAATACCAGCATCGTCTTGATGCCCTTGGAAGTCTCGGCGGAAACGCGTACATCCAGCTGACGAGTCCCAAATAGGACGAAACGCGC
Solution: 1.2

Problem: Now the same for RA290 (nucleic acid, expressed or natural sequence) DNA: GCGCGTCCTGGATTCGCGGAAACGCGTACATCCAGCTGACGACCGGAATACCAGCATCGTCTTGATGCCCTTGGAAGTCCGGGTCCCAAATAGGACGAAACGCGC
Solution: 1.0

Problem: Now the same for RA232 (nucleic acid, expressed or natural sequence) DNA: GCCCGGAATACCAGCATCGTCTTGATGCCCTTGGAAGTCCGGGCGTCCTGGATTCGCGGAAACGCGTACATCCAGCTGACGAGTCCCAAATAGGACGAAACGCGC
Solution: 1.1

Problem: Now the same for RA241 (nucleic acid, expressed or natural sequence) DNA: GCGCGTCCTCCGGAATACCAGCATCGTCTTGATGCCCTTGGAAGTCCGGGGATTCGCGGAAACGCGTACATCCAGCTGACGAGTCCCAAATAGGACGAAACGCGC
Solution: 1.1

Problem: Now the same for RA266 (nucleic acid, expressed or natural sequence) DNA: GCGCGTCCTGGATTCGCGGAAACGCGCGAGAATACCAGCATCGTCTTGATGCCCTTGGAAGTCTCGTACATCCAGCTGACGAGTCCCAAATAGGACGAAACGCGC
Solution: 1.0

Problem: Now the same for RA285 (nucleic acid, expressed or natural sequence) DNA: GCGCGTCCTGGATTCGCGGAAACGCAGTGATACCAGCATCGTCTTGATGCCCTTGGCAGCACTGTACATCCAGCTGACGAGTCCCAAATAGGACGAAACGCGC
Solution: 1.0

Problem: Now the same for RA155 (nucleic acid, expressed or natural sequence) DNA: GCGCGTCCTGGATTCGCGGAAACGCGTACATCCAGCTGACGAGTCCCAAATAGGACGAGAATACCAGCATCGTCTTGATGCCCTTGGAAGTCTCGCGAAACGCGC
Solution: 1.3
